Test: protein stability index of a GFP-peptide fusion (yeast GPS) (PSI 1-4); higher = more stable; sorted into four equal gates, so the index is relative within each strain
Conditions: ubr1∆
readout-name: protein stability index
One number for each entry.

Reference set (5 entries):
1) SNIDYQTLLANSDHAKF [SNF2] = 2.53
2) VTFSVMPPKKSWRNITN [SMC4] = 2.82
3) LFDAAFYMKKDAVEGVS [RPO31] = 2.65
4) VQKSTKTFSYKRPSTFY [RPL20A] = 2.23
5) GYDRHITIFSPEGRLYQ [SCL1] = 3.06

Provide each entry's protein stability index from the list below.
1. PIRINSTEEIEYIELEY [YMR129W/POM152]
2. SKRSKIDIINKLILHAI [YML103C/NUP188]
3. EKELQNEIKQLGSDSSD [SRB4]
4. QEASKQYTKDEQFYTKD [RPN2]
5. VDENDEVLLAGFGRKGK [RPS23A]
6. KNSTSSMTAVPKPLKFL [RPN1]
7. TFLSEWGMEPLEDYVPH [RPB2]

1: 2.82; 2: 1.1; 3: 2.85; 4: 3.25; 5: 1.24; 6: 2.15; 7: 2.81

Provide each entry's protein stability index from the list below.
1. YATQVKTDNTVDKFDFY [RPT3]
2. NHVMPLKPVDKLKPMNI [SIN4]

2.62
2.94

---

Assay: protein stability index of a GFP-peptide fusion (yeast GPS) (PSI 1-4); higher = more stable; sorted into four equal gates, so the index is relative within each strain
Conditions: ubr1∆
Exercise: for every item that follows, state its recorded protein stability index.

1. NTVMLQGIFKNSSNYFG [AAR2] = 1.46

Provide each entry's protein stability index from the list below.
1. GQNCLDIDGIMDNPRKL [SNU114]
2. DSGRGAPLAKVVFRDPY [RPL2A]
3. LQDEVMNIKPVQKQTRA [RPS2]
4. FNKYADPTLTTTTSFTT [RPN4]

1: 3.81; 2: 3.01; 3: 3.63; 4: 2.48

Provide each entry's protein stability index from the list below.
1. QRESQIGAAELNENARE [SNF12]
2. NTTKTADTKAPTFTFGS [YLR335W/NUP2]
3. IAASAFLSLLNLATKGM [REC8]
4. VRVQFQFTGFLLHEMTQ [GRR1]
5. KTWEKVTLDFGNIFADL [SMC2]
6. GNVLLNATVVDSFKYEP [YLR335W/NUP2]

[3.35, 3.38, 1.62, 1.85, 3.12, 2.62]

Provide each entry's protein stability index from the list below.
1. QNNLPPNFFLTLISENW [BRR2]
2. NVAHRIKEDIKKQPSIL [SNF2]
3. QVILPMSPNHGTFGGDG [FAS2]

[2.94, 3.19, 3.07]

---

Experiment: protein stability index of a GFP-peptide fusion (yeast GPS) (PSI 1-4); higher = more stable; sorted into four equal gates, so the index is relative within each strain
Conditions: san1∆
Classification field: true = protein stability index at or over 3; false = protein stability index under 3.

Check out these entries, answers already filled in.
1. NRQTLMFTATMTPVIEK [PRP28] = false
2. GSKIRVMWGKVTRTHGN [RPL33A] = false
3. VFYQVTPEDADEEEDDE [RPL22B] = false
4. GIKAKHDKNIQKLLKQL [ISW2] = false
5. STSYAIKKKDELERVAK [RPS5] = true
6. TFTFTAHMGVLLVLLQD [SWP82] = false

For this sequence, is measured protein stability index 3 or higher? RPKKITGWITQSTPVLL [RPN1]
false

For this sequence, is measured protein stability index 3 or higher? FDKVEVQVRSVMDPITS [DIS3]
true

For this sequence, is measured protein stability index 3 or higher? PLPICHANSVVALTGLL [YML031W/NDC1]
false

For this sequence, is measured protein stability index 3 or higher? QNAKLLANLIRDALRNI [RRP6]
false

For this sequence, is measured protein stability index 3 or higher? SNKPIFLFAPELGAINL [SWI1]
false

---

Assay: protein stability index of a GFP-peptide fusion (yeast GPS) (PSI 1-4); higher = more stable; sorted into four equal gates, so the index is relative within each strain
Conditions: ubr1∆
Classification field: yes = protein stability index at or over 3; no = protein stability index under 3.

Check out these entries, answers already filled in.
1) SRKRGGENVFLKRISDG [SIR3] = yes
2) NIDSLKFNELVKLMKNI [BRR2] = no
3) DATFAGHSLGEYAALAS [FAS1] = no
4) DPDIPMTIDLEPIEESS [IRR1] = yes
5) DADGDIDMGEDKENVPV [DPB4] = yes

Moving on to another sequence below.
For this sequence, is measured protein stability index 3 or higher? QNAKLLANLIRDALRNI [RRP6]
no

---

Exercise: for every item that follows, state its recorded protein stability index.
Experiment: protein stability index of a GFP-peptide fusion (yeast GPS) (PSI 1-4); higher = more stable; sorted into four equal gates, so the index is relative within each strain
Conditions: pdr5∆
Answers are plain numbers.

Reference set (5 entries):
1. SFGNREEFINKLVKSMN [RPL7A] = 2.6
2. SSSMDMQANTNALRRNL [SSN3] = 2.33
3. NDDKKTEPDKPAFSFNS [YJL041W/NSP1] = 3.12
4. QKTRVKLLFDHDELDMN [ESC2] = 3.36
5. ANIELTWAEGTFEQFKD [RPC37] = 3.18

Provide each entry's protein stability index from the list below.
1. LVGSWKKDRATGDADEP [RPO21]
2. PNDSNDEKVTILVDSLT [SWI1]
3. PGDVLDKDAFIPKLKPA [SNU114]
4. LNAINNAEKTGKRQVLI [RPS22A]

1. 3.55
2. 2.81
3. 1.5
4. 2.3

---

Exercise: for every item that follows, state its recorded protein stability index.
Experiment: protein stability index of a GFP-peptide fusion (yeast GPS) (PSI 1-4); higher = more stable; sorted into four equal gates, so the index is relative within each strain
Conditions: pdr5∆
Give bare numbers.

Reference set (10 entries):
1) TTESNSRLKALNLQFKA [YLR335W/NUP2] = 3.04
2) WLEQFLSCVKNDTISED [NUT1] = 1.51
3) DACPLDNQPWQLARCGR [HRT1] = 2.56
4) CVQLIKCLVEKSICFEN [SWI1] = 2.61
5) KNTEEGKALVHHYEECA [QCR6] = 3.29
6) LQSISSLTISLYASDYA [RPN7] = 1.84
7) NTFQKTVEPVYQMHIKT [FAS1] = 1.78
8) RNRGKIHSGVLSSIESD [YMR153W/NUP53] = 2.96
9) LHVVITLLREVVFTRLV [CSN12] = 1.26
10) SGQTPVQSKARYTVRTF [RPL11A] = 2.06

Provide each entry's protein stability index from the list below.
1. SILDDIKLSLKDKTKNI [SMC4]
2. TKSKNKTLIGLQGIVIW [POP4]
3. VTPIIDGIVVKNAVVRS [ARP7]
4. DEFYINVDKNLNEIKEH [RPN14]

2.94
2.76
1.92
2.5

---

Assay: protein stability index of a GFP-peptide fusion (yeast GPS) (PSI 1-4); higher = more stable; sorted into four equal gates, so the index is relative within each strain
Details: san1∆
readout-name: protein stability index
One number for each entry.

Provide each entry's protein stability index from the list below.
1. KKHLKRLAAPHHWLLDK [RPS4A]
2. ESKDSIQDLIVKLKQQK [SMC3]
3. QPKLNPMASSSSFGSES [SWI1]
4. IKKMLHLVWMKGTNDEG [YCS4]
5. KGEVVLVNIRTQTSKEQ [ITC1]

1. 3.18
2. 3.09
3. 3.12
4. 3.19
5. 2.58

---

Experiment: protein stability index of a GFP-peptide fusion (yeast GPS) (PSI 1-4); higher = more stable; sorted into four equal gates, so the index is relative within each strain
Details: pdr5∆
readout-name: protein stability index

Reference set (6 entries):
1) PSLKFKPKAVARKSKEE [RPC53] = 2.65
2) PSMKKIKIEPSADDDVN [SIR3] = 2.63
3) DCENFFNYVQECPAIPI [YJL039C/NUP192] = 2.93
4) GPVAAQFTKVIDEPIKS [FAS1] = 2.41
5) VAQGIMNAGGRNVTIQL [RPN2] = 2.61
6) GEIGDFFSSDWRFLQIL [POP1] = 2.79

Provide each entry's protein stability index from the list below.
1. PESIRQKKARTILQHLS [PRP8]
2. SLVIIILVKRYSIEMKP [ECM29]
3. DNVDFILSNVDLAMANS [RPB3]
4. LNKDSTNEFVGSPSLTS [NUT1]

1: 1.53; 2: 1.38; 3: 3.08; 4: 3.18
